Reference for the values: paper PMC12040169

Experiment: in vitro
Conditions: human, hela cells, % viability
MEASUREMENT_TYPE: viability at 28.5 h, 10 µM

Worked examples, 3 compounds total:
CNCc1cccc(OC)c1OCc1ccccc1F [CBK269949C]
99.2%
c1ccc(-c2ccc(-c3cc(N4CCN(CCN5CCCC5)CC4)ncn3)cc2)cc1
99%
O=C(Cn1cccc(C(=O)NC2CCCC2)c1=O)NCC1(c2ccccc2)CCCC1
96.2%

For this compound ( O=C1CCC(=O)N1CCOc1nccnc1OC1CCN(Cc2ccc(Cl)c(Cl)c2)CC1 ), measured viability at 28.5 h, 10 µM is 96.2%

For this compound ( CC(=O)NCC(=O)N1CCCC2(C/C=C/COc3ccccc3C(=O)NCCNC2=O)C1 (stereo not shown) ), measured viability at 28.5 h, 10 µM is 87.1%

For this compound ( CC(C)[C@H](CO)n1c(=O)[nH]c2ncc(-c3ccc(OC(F)(F)F)cc3)nc21 ), measured viability at 28.5 h, 10 µM is 105%

For this compound ( COc1c(C)cc(S(=O)(=O)NCCN2CCOCC2)c(C)c1C ), measured viability at 28.5 h, 10 µM is 94.1%

For this compound ( Cc1nccn1CCNC(=O)CCc1nc2ccccc2n1C ), measured viability at 28.5 h, 10 µM is 95.3%

For this compound ( COc1cccc(C(=O)Nc2cc(C)c3c(=O)oc4ccccc4c3n2)c1OC ), measured viability at 28.5 h, 10 µM is 106%
